Molecular target: Phosphodiesterase 3 (Homo sapiens, UniProt Q14432+Q13370)
Experiment: Inhibition of phosphodiesterase 3 (PDE3) isolated from the dog aorta
Format: protein assay, Canis lupus familiaris
Details: target entry is the homologue from another species
Recorded IC50, one value per entry.
property: IC50

{"columns": ["molecule", "result"],
 "data": [
  ["Nc1ccc(C(=O)N[C@@H]2N=C(c3ccccc3)c3cc(N)cc4c3N(CC4)C2=O)cc1", "86.8 µM"],
  ["O=C(N[C@@H]1N=C(c2ccccc2)c2cc(N3CCCC3)cc3c2N(CC3)C1=O)c1ccncc1", "18 µM"],
  ["COc1ccc(C2CNC(=O)C2)cc1OC1CCCC1 (configuration not stated) [ROLIPRAM]", "> 100 µM"],
  ["Cc1cc2c3c(c1)C(c1ccccc1)=N[C@@H](NC(=O)c1ccncc1)C(=O)N3CC2", "35.8 µM"],
  ["Cc1cc2c3c(c1)C(c1ccccc1)=N[C@@H](NC(=O)c1cc(Cl)c(N)c(Cl)c1)C(=O)N3CC2", "10.3 µM"],
  ["COc1ccccc1C(=O)N[C@@H]1N=C(c2ccccc2)c2cc(C)cc3c2N(CC3)C1=O", "28.8 µM"],
  ["Cc1cc2c3c(c1)C(c1ccccc1)=N[C@@H](NC(=O)c1nnc4cc(C)nn4c1C)C(=O)N3CC2", "> 100 µM"]
]}

====

Target: Phosphodiesterase 3 (Homo sapiens, UniProt Q14432+Q13370)
Test: Inhibition of phosphodiesterase 3 (PDE3) isolated from the dog aorta
Assay type: protein assay, Canis lupus familiaris
Conditions: target entry is the homologue from another species
property: IC50

{"columns": ["mol", "property", "result"],
 "data": [
  ["Nc1cc2c3c(c1)C(c1ccccc1)=N[C@@H](NC(=O)c1ccncc1N)C(=O)N3CC2", "IC50", "> 100 µM"],
  ["Nc1cc2c3c(c1)C(c1ccccc1)=N[C@@H](NC(=O)c1ccncc1)C(=O)N3CC2", "IC50", "> 100 µM"],
  ["Cc1cc2nnc(C(=O)N[C@@H]3N=C(c4ccccc4)c4cc(N5CCCC5)cc5c4N(CC5)C3=O)c(C)n2n1", "IC50", "22.2 µM"],
  ["COc1cc2c3c(c1)C(c1ccccc1)=N[C@@H](NC(=O)c1ccncc1)C(=O)N3CC2", "IC50", "40.8 µM"],
  ["O=C(N[C@@H]1N=C(c2ccccc2)c2cccc3c2N(CC3)C1=O)c1cc2ccccc2cn1", "IC50", "> 100 µM"],
  ["O=C(N[C@@H]1N=C(c2ccccc2)c2cccc3c2N(CC3)C1=O)c1cccnc1", "IC50", "> 100 µM"],
  ["Nc1cc2c3c(c1)C(c1ccccc1)=N[C@@H](NC(=O)c1cc4ccccc4cn1)C(=O)N3CC2", "IC50", "48.5 µM"],
  ["COc1ccccc1C(=O)N[C@@H]1N=C(c2ccccc2)c2cc(N)cc3c2N(CC3)C1=O", "IC50", "> 100 µM"],
  ["O=C(N[C@@H]1N=C(c2ccccc2)c2cccc3c2N(CC3)C1=O)c1c(Cl)cncc1Cl", "IC50", "> 100 µM"]
]}

====

Biological target: Phosphodiesterase, PDE1/PDE5 (Homo sapiens, UniProt O76074+P54750+Q01064+Q14123)
Test: Inhibition of phosphodiesterase 1/5 isozyme (PDE1/5) mixture isolated from the guinea pig trachea.
Parameters: species or system Cavia porcellus
Settings: target entry is the homologue from another species
property: IC50 (µM)

{"columns": ["mol", "property", "value.modifier", "quantitative.readout"],
 "data": [
  ["Nc1c(Cl)cc(C(=O)N[C@@H]2N=C(c3ccccc3)c3cc(N4CCCC4)cc4c3N(CC4)C2=O)cc1Cl", "IC50", "=", 39.2],
  ["Cc1cc2c3c(c1)C(c1ccccc1)=N[C@@H](NC(=O)c1ccncc1)C(=O)N3CC2", "IC50", "=", 73.4],
  ["CN(C)c1cc2c3c(c1)C(c1ccccc1)=N[C@@H](NC(=O)c1cc(Cl)c(N)c(Cl)c1)C(=O)N3CC2", "IC50", "=", 5.3],
  ["Cc1cc2c3c(c1)C(c1ccccc1)=N[C@@H](NC(=O)c1cc4ccccc4cn1)C(=O)N3CC2", "IC50", ">", 100],
  ["Nc1cc2c3c(c1)C(c1ccccc1)=N[C@@H](NC(=O)c1cc4ccccc4cn1)C(=O)N3CC2", "IC50", ">", 100],
  ["Nc1cnccc1C(=O)N[C@@H]1N=C(c2ccccc2)c2cccc3c2N(CC3)C1=O", "IC50", ">", 100],
  ["Nc1ccc(C(=O)N[C@@H]2N=C(c3ccccc3)c3cc(N)cc4c3N(CC4)C2=O)cc1", "IC50", "=", 93.2],
  ["CC(=O)Nc1cc2c3c(c1)C(c1ccccc1)=N[C@@H](NC(=O)c1ccncc1)C(=O)N3CC2", "IC50", "=", 30.1],
  ["COc1cc2c3c(c1)C(c1ccccc1)=N[C@@H](NC(=O)c1ccncc1)C(=O)N3CC2", "IC50", "=", 16.1],
  ["CC(C)(C)OC(=O)Nc1cnccc1C(=O)N[C@@H]1N=C(c2ccccc2)c2cc(N)cc3c2N(CC3)C1=O", "IC50", "=", 67.7],
  ["Cc1cc2nnc(C(=O)N[C@@H]3N=C(c4ccccc4)c4cc(N5CCCC5)cc5c4N(CC5)C3=O)c(C)n2n1", "IC50", ">", 100],
  ["Nc1cc2c3c(c1)C(c1ccccc1)=N[C@@H](NC(=O)c1cccnc1)C(=O)N3CC2", "IC50", ">", 100],
  ["O=C(N[C@@H]1N=C(c2ccccc2)c2cccc3c2N(CC3)C1=O)c1cccnc1", "IC50", ">", 100],
  ["Cc1cc2c3c(c1)C(c1ccccc1)=N[C@@H](NC(=O)c1c(Cl)cncc1Cl)C(=O)N3CC2", "IC50", "=", 38],
  ["CC(=O)Nc1cc2c3c(c1)C(c1ccccc1)=N[C@@H](NC(=O)c1cc(Cl)c(N)c(Cl)c1)C(=O)N3CC2", "IC50", "=", 3.5],
  ["Nc1cc2c3c(c1)C(c1ccccc1)=N[C@@H](NC(=O)c1c(Cl)cncc1Cl)C(=O)N3CC2", "IC50", ">", 100],
  ["O=C(N[C@@H]1N=C(c2ccccc2)c2cccc3c2N(CC3)C1=O)c1ccncc1", "IC50", ">", 100],
  ["Nc1cc2c3c(c1)C(c1ccccc1)=N[C@@H](NC(=O)c1cc(Cl)c(N)c(Cl)c1)C(=O)N3CC2", "IC50", ">", 100],
  ["COc1ccccc1C(=O)N[C@@H]1N=C(c2ccccc2)c2cc(N)cc3c2N(CC3)C1=O", "IC50", "=", 93.2],
  ["Nc1cc2c3c(c1)C(c1ccccc1)=N[C@@H](NC(=O)c1ccncc1)C(=O)N3CC2", "IC50", ">", 100],
  ["Nc1cc2c3c(c1)C(c1ccccc1)=N[C@@H](NC(=O)c1cnc4ccccc4c1)C(=O)N3CC2", "IC50", "=", 90.7],
  ["Cc1cc2c3c(c1)C(c1ccccc1)=N[C@@H](NC(=O)c1cc(Cl)c(N)c(Cl)c1)C(=O)N3CC2", "IC50", ">", 100],
  ["Cc1cc2c3c(c1)C(c1ccccc1)=N[C@@H](NC(=O)c1nnc4cc(C)nn4c1C)C(=O)N3CC2", "IC50", ">", 100],
  ["CC(C)(C)OC(=O)Nc1cnccc1C(=O)N[C@@H]1N=C(c2ccccc2)c2cccc3c2N(CC3)C1=O", "IC50", "=", 53.3],
  ["O=C(N[C@@H]1N=C(c2ccccc2)c2cc(N3CCCC3)cc3c2N(CC3)C1=O)c1ccncc1", "IC50", "=", 34],
  ["Cc1cc2nnc(C(=O)N[C@@H]3N=C(c4ccccc4)c4cc(N)cc5c4N(CC5)C3=O)c(C)n2n1", "IC50", "=", 72],
  ["COc1cc2c3c(c1)C(c1ccccc1)=N[C@@H](NC(=O)c1cnc4ccccc4c1)C(=O)N3CC2", "IC50", "=", 16.1],
  ["COc1ccccc1C(=O)N[C@@H]1N=C(c2ccccc2)c2cc(C)cc3c2N(CC3)C1=O", "IC50", "=", 50.6],
  ["O=C(N[C@@H]1N=C(c2ccccc2)c2cccc3c2N(CC3)C1=O)c1cc2ccccc2cn1", "IC50", ">", 100],
  ["COc1cc2c3c(c1)C(c1ccccc1)=N[C@@H](NC(=O)c1nnc4cc(C)nn4c1C)C(=O)N3CC2", "IC50", "=", 14.1],
  ["O=C(N[C@@H]1N=C(c2ccccc2)c2cccc3c2N(CC3)C1=O)c1c(Cl)cncc1Cl", "IC50", ">", 100],
  ["Nc1cc2c3c(c1)C(c1ccccc1)=N[C@@H](NC(=O)c1ccncc1N)C(=O)N3CC2", "IC50", ">", 100]
]}
